IC50 values, listed per item
Tested on: p97-dependent Ub^G76V-GFP degradation in HeLa cells
Assay: Ub^G76V-GFP degradation (turn-over) assay
Type: cell-based, human
Conditions: Homo sapiens, HeLa, read-out: IC50 (μM) Ub^G76V-GFP turn over, p97-dependent Ub^G76V-GFP degradation turn-over assay

# compound, targetOfAssay, IC50 (µM)
records = [
    ("N#CC(C(=O)COC(=O)c1ccccc1Cc1ccccc1)=C1Nc2ccccc2N1", "p97-dependent Ub^G76V-GFP degradation in HeLa cells", 3.4),
    ("Nc1nc(CCl)nc(Nc2ccc(Cl)cc2)n1", "p97-dependent Ub^G76V-GFP degradation in HeLa cells", 8),
    ("Cc1cc(C)cc(OCC(=O)OCC(=O)C(C#N)=C2Nc3ccccc3N2)c1", "p97-dependent Ub^G76V-GFP degradation in HeLa cells", 13),
    ("Clc1ccccc1CNc1nc(-c2ccccc2)nc2ccccc12", "p97-dependent Ub^G76V-GFP degradation in HeLa cells", 11),
    ("Nc1nc(CCl)nc(N2CCc3ccccc32)n1", "p97-dependent Ub^G76V-GFP degradation in HeLa cells", 10.4),
    ("Nc1nc(Nc2cccc(Cl)c2)nc(C(Cl)Cl)n1", "p97-dependent Ub^G76V-GFP degradation in HeLa cells", 13),
    ("N#CC(C(=O)COC(=O)C1COc2ccccc2O1)=C1Nc2ccccc2N1 (stereo not shown)", "p97-dependent Ub^G76V-GFP degradation in HeLa cells", 10),
    ("Clc1ccccc1-c1nc(N2CCCc3ccccc32)c2ccccc2n1", "p97-dependent Ub^G76V-GFP degradation in HeLa cells", 11),
    ("Clc1ccc(CNc2nc(-c3ccccc3)nc3ccccc23)cc1", "p97-dependent Ub^G76V-GFP degradation in HeLa cells", 15),
    ("N#CC(C(=O)COC(=O)COc1cccc(Br)c1)=C1Nc2ccccc2N1", "p97-dependent Ub^G76V-GFP degradation in HeLa cells", 5.9),
]

----------
Reported IC50 values follow for various molecules
Biological target: p97 (Homo sapiens)
Sequence (P55072 2-806 limits assumed): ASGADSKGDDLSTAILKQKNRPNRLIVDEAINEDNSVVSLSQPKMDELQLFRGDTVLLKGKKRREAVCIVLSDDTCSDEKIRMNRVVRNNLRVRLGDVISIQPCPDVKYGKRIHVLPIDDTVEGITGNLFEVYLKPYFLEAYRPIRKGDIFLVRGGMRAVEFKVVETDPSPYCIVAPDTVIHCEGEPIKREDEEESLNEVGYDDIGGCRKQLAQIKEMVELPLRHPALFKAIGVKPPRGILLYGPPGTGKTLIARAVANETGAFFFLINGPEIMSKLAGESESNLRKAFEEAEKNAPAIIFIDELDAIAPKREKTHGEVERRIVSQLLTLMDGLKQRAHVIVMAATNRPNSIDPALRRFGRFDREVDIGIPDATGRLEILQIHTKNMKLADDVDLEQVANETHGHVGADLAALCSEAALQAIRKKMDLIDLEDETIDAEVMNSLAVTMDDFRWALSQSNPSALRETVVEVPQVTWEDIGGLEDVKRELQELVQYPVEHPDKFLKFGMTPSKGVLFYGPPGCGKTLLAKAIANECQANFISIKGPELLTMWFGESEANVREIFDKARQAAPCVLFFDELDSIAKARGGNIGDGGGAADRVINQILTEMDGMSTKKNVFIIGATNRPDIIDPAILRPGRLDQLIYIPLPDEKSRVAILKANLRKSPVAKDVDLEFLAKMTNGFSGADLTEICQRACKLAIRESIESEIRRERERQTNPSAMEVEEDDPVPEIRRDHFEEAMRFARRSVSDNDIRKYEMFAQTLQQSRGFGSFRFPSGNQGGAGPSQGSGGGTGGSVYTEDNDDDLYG
Assay: p97 ATPase assay (Kinase Glo Plus; biomol green for compounds that interfere with luciferase)
Assay type: biochemical
Conditions: p97 ATPase assay

# molecule, comparativeSign, IC50 (µM)
rows = [
    ("CC(Nc1nc(-c2ccccc2)nc2ccccc12)c1ccccc1 (stereo not shown)", "=", 27),
    ("COc1cccc2c(NCc3cccc(N(C)C)c3)nc(N3CCOc4ccccc43)nc12", "=", 52),
    ("c1ccc(CNc2nc(N3CCN(Cc4ccccc4)CC3)nc3ccccc23)cc1", "=", 33),
    ("c1ccc(-c2nc(N3CCc4ccccc4C3)c3ccccc3n2)cc1", ">", 30),
    ("Clc1ccc(CNc2nc(-c3ccccc3)nc3ccccc23)cc1", ">", 30),
    ("COc1cccc2c(NCc3cncs3)nc(N3CCOc4ccccc43)nc12", "=", 38),
    ("CC(Nc1nc(-c2ccccc2F)nc2ccccc12)c1ccccc1 (stereo not shown)", ">", 30),
]

----------
Tested on: p97-dependent Ub^G76V-GFP degradation in HeLa cells
Test: Ub^G76V-GFP degradation (turn-over) assay
Type: cell-based, human
Conditions: Homo sapiens, HeLa, read-out: IC50 (μM) Ub^G76V-GFP turn over, p97-dependent Ub^G76V-GFP degradation turn-over assay

# compound, IC50 (µM)
rows = [
    ("CC(C)Nc1nc(Nc2cccc(Cl)c2)nc2ccccc12 [XLII]", 11),
    ("N#CC(C(=O)COC(=O)CCC(=O)c1ccc2c(c1)OCCO2)=C1Nc2ccccc2N1 [XXXIX]", 6.3),
    ("Cc1ccc(-c2nc(NCc3ccccc3)c3ccc(Cl)cc3n2)cc1 [I-33]", 24),
    ("Cc1cccc(C)c1OCC(=O)OCC(=O)C(C#N)=C1Nc2ccccc2N1 [XXXVI]", 15),
    ("Clc1cccc(CNc2nc(-c3ccccc3)nc3ccccc23)c1 [Cpd I-12]", 17),
    ("Clc1ccc2c(NCc3ccccc3)nc(-c3ccccc3)nc2c1 [Cpd I-32]", 12),
    ("COc1cccc2c(NCc3ccccc3)nc(NC(=O)N(C)C)nc12 [XI-7]", 37),
    ("FC(F)(F)c1cccc(Nc2nc(NCc3ccccc3)c3ccccc3n2)c1 [II-20]", 21),
    ("COc1cccc2c(NCc3ccccn3)nc(N3CCNc4ccccc43)nc12 [XLIII]", 16),
]
